Quick list: self-splicing fitness (ln) per entry.
test_method_notes: self-splicing fitness, log relative to wild type (ln ratio); higher = more splicing; Tetrahymena group I intron in knt gene, E. coli kanamycin selection, DiMSum; sequences stand for … in CUCUCU…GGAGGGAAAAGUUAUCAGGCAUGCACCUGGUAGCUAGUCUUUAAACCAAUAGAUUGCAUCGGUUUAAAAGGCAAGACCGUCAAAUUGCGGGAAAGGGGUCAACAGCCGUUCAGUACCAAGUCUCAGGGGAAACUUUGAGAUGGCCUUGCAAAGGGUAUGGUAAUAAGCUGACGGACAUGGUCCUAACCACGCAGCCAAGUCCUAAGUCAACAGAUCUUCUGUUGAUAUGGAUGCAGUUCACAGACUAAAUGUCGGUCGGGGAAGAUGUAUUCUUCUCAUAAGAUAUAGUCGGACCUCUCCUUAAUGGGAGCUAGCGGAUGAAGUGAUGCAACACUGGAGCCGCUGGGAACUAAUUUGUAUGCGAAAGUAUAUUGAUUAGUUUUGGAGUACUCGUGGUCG;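 further: selection with 25 µg/mL kanamycin versus none on LB agar overnight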
particulars: 30 °C
endpoint: self-splicing fitness (ln)

| sequence_input | value |
| --- | --- |
| CCACAGCAAUAUUACGUCAC | -3.34 |
| CAUUAGCAAUAUUACGGUGG | -0.719 |
| AAGAAGCAAUAUUACGCCCA | -0.613 |
| UUGUAGCAAUAUUACGUCGA | -0.938 |
| CCUAAGCAAUAUUACGUGGG | -3.51 |
| GACAAGCAAUAUUACGAAAC | -2.29 |
| GAAGAGCAAUAUUACGCCCG | -1.59 |
| AUUCAGCAAUAUUACGAGGC | -3.49 |
| CCGGAGCAAUAUUACGGAGC | -3.73 |
| AUUAAGCAAUAUUACGUUGU | -1.98 |
| GGAAAGCAAUAUUACGGGAA | -2.5 |
| UUACAGCAAUAUUACGCGGG | -2.33 |
| ACUCAGCAAUAUUACGAACA | -1.16 |
| CAGGAGCAAUAUUACGGGGU | -3.38 |
| ACUAAGCAAUAUUACGUGAA | -1.24 |
| ACGAAGCAAUAUUACGUGGG | -2.76 |
| CUUCAGCAAUAUUACGGUAC | -3.21 |
| CAAAAGCAAUAUUACGUGCC | -2.99 |
| GUGGAGCAAUAUUACGCGCG | -1.79 |
| GCCUAGCAAUAUUACGUUGG | -3.78 |
| GACCAGCAAUAUUACGGUCA | -1.44 |
| CCGUAGCAAUAUUACGAGAU | -3.86 |
| AUGCAGCAAUAUUACGCACC | -1.11 |
| CGGCAGCAAUAUUACGACGC | -3.45 |
| AGAAAGCAAUAUUACGAGAU | -3.45 |
| UUGCAGCAAUAUUACGUACA | 0.118 |
| GCGAAGCAAUAUUACGGUGU | -3.59 |
| GUCAAGCAAUAUUACGAAGA | -3.88 |
| CUAAAGCAAUAUUACGUGAC | -1.12 |
| GAUAAGCAAUAUUACGCAGG | -1.69 |
| CCACAGCAAUAUUACGAGUC | -3.55 |
| GUAAAGCAAUAUUACGGAUA | -2.72 |
| ACCCAGCAAUAUUACGUGUA | -1.38 |
| GCAAAGCAAUAUUACGCGUG | -3.41 |
| GUGGAGCAAUAUUACGCUCC | -1.83 |
| AAAUAGCAAUAUUACGUACA | -1.23 |
| AGAAAGCAAUAUUACGUCUU | -1.77 |
| UGUCAGCAAUAUUACGACAG | -1.62 |
| AGUGAGCAAUAUUACGGGUG | -3.71 |
| AUUGAGCAAUAUUACGUCGG | -4.24 |
| CUUGAGCAAUAUUACGGCAG | -1.01 |
| GUUUAGCAAUAUUACGUUUU | -2.72 |
| UUAAAGCAAUAUUACGUGCC | -0.9 |
| UGUUAGCAAUAUUACGAACU | -0.445 |
| AACGAGCAAUAUUACGAAGA | -3.13 |
| CACGAGCAAUAUUACGGCAC | -2.97 |
| ACAGAGCAAUAUUACGGACU | -2.73 |
| GGAGAGCAAUAUUACGAGAU | -2.5 |
| AUGAAGCAAUAUUACGCUCU | -0.29 |
| UAACAGCAAUAUUACGUCUA | -0.13 |
| UCCCAGCAAUAUUACGCGGU | -3.01 |
| AGUAAGCAAUAUUACGGAGU | -2.22 |
| UGUAAGCAAUAUUACGAUUA | -0.52 |
| AUGCAGCAAUAUUACGAUGC | -2.06 |
| AGAUAGCAAUAUUACGUCUG | -0.398 |
| CCACAGCAAUAUUACGUUGU | -2.37 |
| GGCGAGCAAUAUUACGCAGG | -2.43 |
| GGACAGCAAUAUUACGCUAU | -1.42 |
| UACGAGCAAUAUUACGCAUA | -3.17 |
| UCGGAGCAAUAUUACGAUCG | -1.22 |
| GUGUAGCAAUAUUACGGAGG | -3.89 |
| UUCGAGCAAUAUUACGAACG | -2.89 |
| UAGCAGCAAUAUUACGGUUG | -1.17 |
| GAUCAGCAAUAUUACGAGCA | -1.26 |
| CAGAAGCAAUAUUACGACGU | -1.53 |

====

Quick list: self-splicing fitness (ln) per entry.
test_method_notes: self-splicing fitness, log relative to wild type (ln ratio); higher = more splicing; Tetrahymena group I intron in knt gene, E. coli kanamycin selection, DiMSum; sequences stand for … in CUCUCU…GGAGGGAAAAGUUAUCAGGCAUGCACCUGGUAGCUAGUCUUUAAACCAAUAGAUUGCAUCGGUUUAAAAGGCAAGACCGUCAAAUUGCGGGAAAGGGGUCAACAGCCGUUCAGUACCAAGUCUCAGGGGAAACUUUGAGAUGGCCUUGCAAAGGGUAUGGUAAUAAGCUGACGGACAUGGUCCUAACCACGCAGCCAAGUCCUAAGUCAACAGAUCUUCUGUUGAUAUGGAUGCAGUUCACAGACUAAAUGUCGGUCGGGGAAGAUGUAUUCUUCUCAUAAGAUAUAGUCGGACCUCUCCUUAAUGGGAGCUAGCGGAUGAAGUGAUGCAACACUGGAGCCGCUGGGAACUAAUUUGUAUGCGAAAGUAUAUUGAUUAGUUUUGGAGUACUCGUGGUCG
particulars: 37 °C

| sequence_input | self-splicing fitness (ln) |
| --- | --- |
| GCUUAGCAAUAUUACGGAGA | -0.596 |
| UUAUAGCAAUAUUACGGCUU | -0.583 |
| GAGGAGCAAUAUUACGGUCC | -0.994 |
| AUCUAGCAAUAUUACGGCCA | -0.879 |
| UCUAAGCAAUAUUACGCUAU | -3.37 |
| AAGUAGCAAUAUUACGGGGC | -3.4 |
| UCCCAGCAAUAUUACGUCCA | -0.587 |
| UAUCAGCAAUAUUACGUAAU | -0.784 |
| GGGCAGCAAUAUUACGGUUU | -0.681 |
| ACUAAGCAAUAUUACGCAAC | -1.17 |
| ACUCAGCAAUAUUACGGUGA | -1.23 |
| AUCUAGCAAUAUUACGUACA | 0.464 |
| GAGCAGCAAUAUUACGGUAU | -1.34 |
| CUUGAGCAAUAUUACGCCUA | -3.13 |
| ACGUAGCAAUAUUACGAACU | -0.266 |
| AACUAGCAAUAUUACGACCA | 0.118 |
| CUAUAGCAAUAUUACGUAUA | -2.56 |
| GAUGAGCAAUAUUACGCGCU | -1.88 |

====

test_method_notes: self-splicing fitness, log relative to wild type (ln ratio); higher = more splicing; Tetrahymena group I intron in knt gene, E. coli kanamycin selection, DiMSum; sequences stand for … in CUCUCU…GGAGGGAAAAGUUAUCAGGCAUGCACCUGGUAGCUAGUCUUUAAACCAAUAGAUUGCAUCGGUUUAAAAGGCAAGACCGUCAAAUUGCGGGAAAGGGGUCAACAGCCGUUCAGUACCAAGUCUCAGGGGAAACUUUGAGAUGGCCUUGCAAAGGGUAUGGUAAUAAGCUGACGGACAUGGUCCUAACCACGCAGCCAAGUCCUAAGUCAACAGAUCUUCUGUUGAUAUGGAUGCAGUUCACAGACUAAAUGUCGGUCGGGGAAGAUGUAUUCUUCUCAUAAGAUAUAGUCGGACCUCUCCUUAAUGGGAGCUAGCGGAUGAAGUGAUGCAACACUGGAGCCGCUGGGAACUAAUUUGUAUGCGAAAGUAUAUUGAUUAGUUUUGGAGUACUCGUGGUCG
particulars: 37 °C
endpoint: self-splicing fitness (ln)

| sequence_input | value |
| --- | --- |
| ACCGAGCAAUAUUACGAUCC | -1.94 |
| CCUUAGCAAUAUUACGAACA | -0.92 |
| ACUCAGCAAUAUUACGUGAC | -0.561 |
| AGUUAGCAAUAUUACGAUCU | 0.11 |
| GUCUAGCAAUAUUACGCUAA | 0.163 |
| UUGAAGCAAUAUUACGCUAG | -0.328 |
| UGGCAGCAAUAUUACGACUA | 0.38 |
| CCGAAGCAAUAUUACGAGGC | -3.39 |
| UUCCAGCAAUAUUACGGUUG | -1.75 |
| GAAAAGCAAUAUUACGUUGU | -2.22 |
| UCACAGCAAUAUUACGAACU | -2.23 |
